Assignment: determine reported ELISA for the given binders.
- SYSTEM_NAME: recombinant reconstituted β2 adrenergic receptor
- EXPERIMENT: ELISA of clones panned from the Gs library, reconstituted β2 adrenergic receptor
Where no end group is shown, it is not given here.
Give bare numbers.

Guide cases for ELISA, answers given:
BINDER	ELISA
QWMDLRQHELL (peptide, not shown: small tags and cut ends, not fully specified) [BAR3 QWMDLRQHELL]	0.185
ERLHRRLFQLH (peptide, not shown: small tags and cut ends, not fully specified) [BAR8 ERLHRRLFQLH]	0.047
QRMNLGPCGLL (peptide, not shown: small tags and cut ends, not fully specified) [AG18 QRMNLGPCGLL]	0.155

Field ELISA (entry RWLHWQYRGRG (peptide, not shown: small tags and cut ends, not fully specified) [AG20 RWLHWQYRGRG] ) reads 0.431

// data source = patent US20040018558A1
